- Tested on: NCI-H226
- assayProcedure: NCI tumour cell line growth inhibition, 48 h
The source made the active and inactive calls. No stated cut-off is given here; in the data, active = GI50 up to about 1.1 µM and inactive = higher.
metricName: GI50

Look over these answered cases.
| compound | reportedMeasurement |
| --- | --- |
| COc1ccc2c(c1)CCCC(Br)C2=O (stereo not drawn) | 2.18 µM (inactive) |
| CC(C)[Si](OC1=CCCCCC12C(=O)N(C)c1ccccc12)(C(C)C)C(C)C (stereo not drawn) | 20.2 µM (inactive) |
| O=C1C2Nc3ccccc3SC2C(=O)N1c1ccccc1C(F)(F)F (stereo not drawn) | 43.1 µM (inactive) |
| COc1c(-c2nc3ccc(N4CCN(C)CC4)nc3[nH]2)cc(OC)c2c1nc(CO)n2C | > 100 µM (inactive) |
| C=Cc1nc(C#N)c(N)o1 | > 100 µM (inactive) |
| N=C(N)NS(=O)(=O)c1ccc(NNc2c3ccccc3nc3c(C(=O)Nc4ccc(S(N)(=O)=O)cc4)cccc23)cc1 | 92 µM (inactive) |
| N#Cc1c(O)nc2nn3c4ccc5ccccc5c4nnc3c2c1-c1ccc(Cl)cc1 | 7.14 µM (inactive) |
| CC(C)CNC(=O)CCc1cccc2c1oc1c(CCN)cccc12 | 16.9 µM (inactive) |
| O=C(OC12CC3CC(CC(C3)C1)C2)c1ccc(NCc2cc(O)ccc2O)cc1 | 1.33 µM (inactive) |
| C/N=c1\ss/c(=N\C(=S)N(C)C)n1-c1ccccc1 | > 100 µM (inactive) |

Input: Bench note: what GI50 did COC(=O)C1=C(c2ccc(Cl)cc2)C(O)NC(NN)=N1 (stereo not drawn) show?
Output: > 100 µM (inactive)

Input: I would be grateful if you could share the reported GI50 for Cc1ccccc1OC(C)C(=O)NN1C(=O)CC(=O)N(c2ccccc2)C1=S (stereo not drawn) .
Output: 41.9 µM (inactive)

Input: Request the reported GI50 associated with CP(=O)(CCSc1ccccc1)c1ccccc1 (stereo not drawn)
Output: > 100 µM (inactive)
